B1: SNAP91 (parent)
chain: FAQPMMRPPFGAAAVPGTQLSPSP

- Variants of: B1
- method.summary: protein stability index of a GFP-peptide fusion (GPS, HEK-293T) (PSI 1-6); higher = more stable;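 further: lentivirally expressed fusions sorted by FACS into six bins by GFP to DsRed ratio, PSI derived from sequencing read proportions per bin multiplied by bin number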
- details: c terminus: a fixed tail appended
Overview of reported protein stability index across a group of variants:
Answer as a number with no unit attached.

# lookup: protein stability index of `S23D`
3.54
